Source: patent US6908919B2

molecular target: Human factor Xa (Homo sapiens, UniProt P00742); experiment: Xa Assay; assay type: biochemical; design: purchased Enzyme Research Laboratories, South Bend Ind; settings: at 30 µM inhibitor
Sequence (P00742 41-179 limits assumed): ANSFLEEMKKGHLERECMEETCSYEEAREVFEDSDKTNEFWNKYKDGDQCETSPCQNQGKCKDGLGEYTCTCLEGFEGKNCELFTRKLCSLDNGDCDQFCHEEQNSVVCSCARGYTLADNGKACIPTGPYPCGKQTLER
Sequence (P00742 235-488 limits assumed): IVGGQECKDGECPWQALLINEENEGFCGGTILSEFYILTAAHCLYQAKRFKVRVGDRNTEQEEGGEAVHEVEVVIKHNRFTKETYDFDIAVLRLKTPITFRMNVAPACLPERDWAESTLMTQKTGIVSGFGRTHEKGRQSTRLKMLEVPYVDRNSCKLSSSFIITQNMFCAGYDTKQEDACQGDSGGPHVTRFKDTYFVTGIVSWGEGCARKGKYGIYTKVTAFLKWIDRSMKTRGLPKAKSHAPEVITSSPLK
PARAMETER_MEASURED: % Inhibition Factor Xa (30 µM) (%)
Answers are plain numbers, in %.

INSERT INTO assay_data (compound, parameter_measured, value_observed) VALUES
  ('C[C@H](C(=O)NCc1ccc(C(=N)N)cc1)n1c(-c2ccccc2)c(Cl)nc(NCc2ccccc2)c1=O', '% Inhibition Factor Xa (30 µM)', 0);

Batch: % Inhibition Factor Xa (30 µM) for all items listed.
1. CC(C)Nc1nc(Cl)c(-c2cccc([N+](=O)[O-])c2)n(CC(=O)NCc2ccc(C(N)=NO)cc2)c1=O
2. CC1CCCC(Nc2nc(Cl)c(-c3ccccc3)n(CC(=O)NCc3ccc(C(=N)N)cc3)c2=O)C1C (stereo not drawn)
3. CN(C)CC/N=C(\NCCN(C)C)c1ccc(CNC(=O)Cn2c(-c3cccc(N)c3)c(Cl)nc(NC3CCC3)c2=O)cc1
4. N=C(N)c1ccc(CNC(=O)Cn2c(-c3ccccc3)c(Cl)nc(NCCc3cccnc3)c2=O)cc1
5. N=C(N)c1ccc(CNC(=O)Cn2c(-c3ccc(Cl)cc3)c(Cl)nc(NCCc3ccccc3)c2=O)cc1
6. N=C(N)c1ccc(CNC(=O)Cn2c(-c3ccc4c(c3)OCO4)c(Cl)nc(NCCc3cccc(Cl)c3)c2=O)cc1
7. NC1=NCCSc2cc(CNC(=O)Cn3c(-c4cccc(N)c4)c(Cl)nc(NC4CCC4)c3=O)ccc21

a:
1: 0; 2: 6; 3: 4; 4: 23; 5: 36; 6: 21; 7: 6

Batch: % Inhibition Factor Xa (30 µM) for all items listed.
1. N=C(N)c1ccc(CNC(=O)Cn2c(-c3ccccc3)c(Cl)nc(NCc3cc(F)cc(C(F)(F)F)c3)c2=O)cc1
2. N=C(N)c1ccc(CNC(=O)Cn2c(-c3ccccc3)c(Cl)nc(NCc3cccc(OC(F)(F)F)c3)c2=O)cc1
3. Cc1c(Cl)nc(NCCc2cccc(Cl)c2)c(=O)n1CC(=O)NCc1ccc(C(=N)N)cc1
4. N=C(N)c1ccc(CNC(=O)Cn2c(-c3ccccc3)c(Cl)nc(NCCC3=CCCCC3)c2=O)cc1
5. N=C(N)c1ccc(CNC(=O)Cn2c(-c3ccccc3)c(Cl)nc(NCc3c(F)cccc3F)c2=O)cc1
6. Nc1cccc(-c2c(Cl)nc(NC3CCC3)c(=O)n2CC(=O)NCc2ccc3c(N)nsc3c2)c1
7. N=C(N)c1ccc(CNC(=O)Cn2c(-c3ccccc3)c(Cl)nc(NCc3ccccc3OC(F)(F)F)c2=O)cc1

a:
1. 4
2. 3
3. 14
4. 16
5. 9
6. 3
7. 1

Batch: % Inhibition Factor Xa (30 µM) for all items listed.
1. Nc1n[nH]c2ccc(CNC(=O)Cn3c(-c4ccccc4)cnc(NCCc4ccccc4)c3=O)cc12
2. N=C(N)c1ccc(CNC(=O)Cn2c(-c3cccc(Cl)c3)c(Cl)nc(NCc3ccccc3)c2=O)cc1 [1471-25]
3. CN(C)CCCNc1nc(Cl)c(-c2ccccc2)n(CC(=O)NCc2ccc(C(=N)N)cc2)c1=O
4. Cc1cc(Cl)cc(Cl)c1CNc1nc(Cl)c(-c2ccccc2)n(CC(=O)NCc2ccc(C(=N)N)cc2)c1=O
5. Cc1c(Cl)nc(NCCc2ccc(Cl)cc2)c(=O)n1CC(=O)NCc1ccc(C(=N)N)cc1
6. N=C(N)NCC#CCNC(=O)Cn1c(-c2ccccc2)cnc(NCCc2ccccc2)c1=O

a:
[22, 31, 19, 11, 10, 0]

Batch: % Inhibition Factor Xa (30 µM) for all items listed.
1. N=C(N)c1ccc(CNC(=O)Cn2c(-c3ccc(N)cc3)c(Cl)nc(NC3CCC3)c2=O)cc1
2. N=C(N)c1ccc(CNC(=O)Cn2c(-c3ccccc3)c(Cl)nc(NC3CCc4ccccc43)c2=O)cc1 (stereo not drawn)
3. N=C(N)c1ccc(CNC(=O)Cn2c(-c3ccccc3)c(Cl)nc(NC3CCS(=O)(=O)C3)c2=O)cc1 (stereo not drawn) [1512-19]

a:
1: 10; 2: 9; 3: 3

Batch: % Inhibition Factor Xa (30 µM) for all items listed.
1. N=C(N)c1ccc(CNC(=O)Cn2c(-c3ccc(Cl)cc3)c(Cl)nc(NCCN3CCOCC3)c2=O)cc1
2. N=C(NC(=O)OCc1ccccc1)c1ccc(CNC(=O)Cn2c(-c3cccc(N)c3)c(Cl)nc(NC3CCC3)c2=O)cc1
3. N=C(N)c1ccc(CNC(=O)Cn2c(-c3ccccc3N)cnc(NC3CCC3)c2=O)cc1
4. Cc1c(Cl)nc(NCc2ccncc2)c(=O)n1CC(=O)NCc1ccc(C(=N)N)cc1
5. N=C(N)c1ccc(CNC(=O)Cn2c(-c3ccc4c(c3)OCO4)c(Cl)nc(NCc3ccccc3)c2=O)cc1

a:
34
17
12
0
34
